- System Tested: WDR5 (UniProt P61964 22-334)
- Protocol Description: fluorescence polarization
Metric: Kd (nM)
API: value field is a number in nM; no unit string.

# Kd (binder: GGGGGCTGGACCCCTCAACT (structured_DNA) [WMiApt-1] ) is 797
